Just for reference, patent US20200024330A1 is where these values come from.

target: HIV-1 Env of isolate 92UG031 (HIV-1); experiment: cell-based or functional assay
Catalogue of binders with associated IC50 (µg/mL), pseudovirus neutralization

>  <BINDER>
PGT-126 (antibody, V domains shown) VH: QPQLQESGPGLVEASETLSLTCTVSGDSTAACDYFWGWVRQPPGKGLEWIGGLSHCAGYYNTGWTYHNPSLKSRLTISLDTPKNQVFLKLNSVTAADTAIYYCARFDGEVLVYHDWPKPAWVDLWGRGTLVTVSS VL: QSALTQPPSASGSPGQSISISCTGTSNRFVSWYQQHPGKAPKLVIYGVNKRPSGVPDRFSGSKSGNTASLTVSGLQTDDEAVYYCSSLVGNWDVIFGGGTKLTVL

>  <IC50 (µg/mL), pseudovirus neutralization>
> 50 µg/mL

$$$$
>  <BINDER>
PGT-125 (antibody, V domains shown) VH: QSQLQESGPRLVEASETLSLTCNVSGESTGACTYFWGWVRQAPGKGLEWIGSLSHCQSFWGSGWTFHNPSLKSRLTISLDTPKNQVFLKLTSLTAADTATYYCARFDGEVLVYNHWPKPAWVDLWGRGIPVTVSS VL: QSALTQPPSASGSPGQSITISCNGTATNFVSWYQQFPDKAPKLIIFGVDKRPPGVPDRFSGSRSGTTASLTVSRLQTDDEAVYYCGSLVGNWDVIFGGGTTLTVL

>  <IC50 (µg/mL), pseudovirus neutralization>
> 50 µg/mL

$$$$
>  <BINDER>
PGT-127 (antibody, V domains shown) VH: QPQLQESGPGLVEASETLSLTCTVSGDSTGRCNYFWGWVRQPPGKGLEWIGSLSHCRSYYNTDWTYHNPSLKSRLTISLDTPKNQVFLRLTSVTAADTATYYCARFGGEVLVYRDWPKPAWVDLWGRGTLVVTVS VL: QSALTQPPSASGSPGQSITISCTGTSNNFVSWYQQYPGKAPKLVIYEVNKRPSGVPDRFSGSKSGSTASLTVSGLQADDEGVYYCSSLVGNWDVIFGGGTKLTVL

>  <IC50 (µg/mL), pseudovirus neutralization>
> 50 µg/mL

$$$$
>  <BINDER>
PGT-123 (antibody, V domains shown) VH: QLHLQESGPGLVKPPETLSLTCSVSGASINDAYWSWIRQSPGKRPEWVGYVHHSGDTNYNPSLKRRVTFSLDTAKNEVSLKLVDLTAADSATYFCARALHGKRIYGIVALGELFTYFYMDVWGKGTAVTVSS VL: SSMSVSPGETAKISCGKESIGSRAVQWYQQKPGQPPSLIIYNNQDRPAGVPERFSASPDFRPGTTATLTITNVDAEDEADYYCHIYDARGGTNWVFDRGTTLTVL

>  <IC50 (µg/mL), pseudovirus neutralization>
> 50 µg/mL

$$$$
